Task for the reader: assign each of the following compounds its reported cell viability.
Tested on: U87
Assay: cell viability relative to vehicle control; higher = less growth inhibition (less active)
Conditions: 10 µM; 72 h
Give bare numbers, in %.

Sample answers from the record:
[
  {
    "compound": "COC(=O)N1CCN(C(=O)Cc2ccc(Cl)c(Cl)c2)C(CN2CCCC2)C1 (stereo unspecified)",
    "quantityName": "cell viability",
    "quantityUnit": "%",
    "endpointValue": 105
  },
  {
    "compound": "Cc1ncc2n1-c1ccc(Cl)cc1C(c1ccccc1F)=NC2",
    "quantityName": "cell viability",
    "quantityUnit": "%",
    "endpointValue": 102
  },
  {
    "compound": "CN1C(=O)COc2c(C(=O)NC3CN4CCC3CC4)cc(Cl)cc21 (stereo unspecified) [Azasetron]",
    "quantityName": "cell viability",
    "quantityUnit": "%",
    "endpointValue": 103
  }
]

For every record below, what is its cell viability?
1. NCCc1ccccn1
2. COc1cccc(C2(O)CCCCC2CN(C)C)c1 (stereo unspecified) [Tramadol]
3. C[C@]12CCC(=O)C[C@@H]1CC[C@@H]1[C@@H]2CC[C@@]2(C)[C@H]1CC[C@]2(C)O [Mestanolone]
4. CS(=O)(=O)Nc1ccc(Cc2noc(-c3ccc4[nH]cc(CCN)c4c3)n2)cc1
5. c1ccc2c3c([nH]c2c1)CNCC3
6. CN1C(=O)CN=C(c2ccccc2)c2cc(Cl)ccc21 [Diazepam]
7. Oc1cc2c(cc1O)[C@H]1c3ccccc3CN[C@@H]1CC2
8. COc1ccc(CCN)cc1OC [Homoveratrylamine]

Output:
[104, 102, 106, 106, 104, 98.6, 109, 104]

For every record below, what is its cell viability?
1. CC(C)CC(N(C)C)C1(c2ccc(Cl)cc2)CCC1 (stereo unspecified)
2. C=C(C)[C@@H]1[C@H]2OC(=O)[C@@H]1[C@]1(O)C[C@H]3O[C@]34C(=O)O[C@H]2[C@]14C.CC(C)(O)[C@@H]1[C@H]2OC(=O)[C@@H]1[C@]1(O)C[C@H]3O[C@]34C(=O)O[C@H]2[C@]14C [Picrotin - Picrotoxinin]
3. C[C@]12Cc3c[nH]nc3C[C@@H]1CC[C@@H]1[C@@H]2CC[C@@]2(C)[C@H]1CC[C@]2(C)O [Stanozolol]

Output:
1. 108
2. 105
3. 107

For every record below, what is its cell viability?
1. Oc1ccc2c3c1O[C@H]1c4[nH]c5ccccc5c4C[C@@]4(O)[C@@H](C2)N(CC2CC2)CC[C@]314 [Naltrindole]
2. COc1ccc2[nH]cc(C3=CCNCC3)c2c1
3. COc1cc(N)c(Cl)cc1C(=O)NC1CN2CCC1CC2 (stereo unspecified) [Zacopride]
4. COc1ccc(C(CN(C)C)C2(O)CCCCC2)cc1 (stereo unspecified)
5. FC(F)(F)c1cccc(N2CCNCC2)c1

Output:
1: 105; 2: 105; 3: 102; 4: 103; 5: 109

For every record below, what is its cell viability?
1. Cc1ccc(-c2nc3ccc(C)cn3c2CC(=O)N(C)C)cc1
2. OC1CCCCC1N1CCC(c2ccccc2)CC1 (stereo unspecified)

Output:
1: 106; 2: 95

----------
Tested on: U87
Assay: cell viability relative to vehicle control; higher = less growth inhibition (less active)
Conditions: 10 µM; 72 h
Task for the reader: assign each of the following compounds its reported cell viability.
One number for each entry, in %.

Sample answers from the record:
[
  {
    "compound": "C[N+]1(CCC(C(N)=O)(c2ccccc2)c2ccccc2)CCCCC1",
    "cell viability [%]": 102
  },
  {
    "compound": "CNCC(O)c1ccc(O)cc1 (stereo not given)",
    "cell viability [%]": 107
  },
  {
    "compound": "c1ccc2c(c1)Nc1ccccc1S2",
    "cell viability [%]": 111
  }
]

For every record below, what is its cell viability?
1. c1cncc([C@@H]2CCCN2)c1
2. C=C1C[C@@H]2[C@H](CC[C@]3(C)C(=O)CC[C@@H]23)[C@@]2(C)C=CC(=O)C=C12
3. Oc1ccc2c3c1O[C@H]1[C@@H](O)CC[C@@]4(O)[C@@H](C2)N(CC2CCC2)CC[C@]314
4. CCCN1C[C@H](CSC)C[C@@H]2c3cccc4[nH]cc(c34)C[C@H]21 [Pergolide]
5. C[C@H]1CCC[C@H](O)CCCCCc2cc(O)cc(O)c2C(=O)O1
6. C[C@]12CCC(=O)C=C1CC[C@@H]1[C@@H]2CC[C@@]2(C)[C@H]1CC[C@]2(C)O
7. CC(C)[C@]12O[C@H]1[C@@H]1O[C@]13[C@]1(O[C@H]1C[C@H]1C4=C(CC[C@@]13C)C(=O)OC4)[C@@H]2O

Output:
[111, 107, 99.2, 109, 107, 66.4, 26.3]

----------
System: U87
Assay: cell viability relative to vehicle control; higher = less growth inhibition (less active)
Details: 10 µM; 72 h
quantityName: cell viability
State the result as a value with its unit after it.

Sample answers from the record:
[
  {
    "compound": "CC(C)CC(N(C)C)C1(c2ccc(Cl)cc2)CCC1 (centres undefined) [Sibutramine]",
    "testedSystem": "U87",
    "cell viability": "112%"
  },
  {
    "compound": "CC[C@@H](C(N)=O)N1CCCC1=O",
    "testedSystem": "U87",
    "cell viability": "110%"
  },
  {
    "compound": "COc1ccc2[nH]cc(CCN)c2c1 [5-Methoxytryptamine]",
    "testedSystem": "U87",
    "cell viability": "109%"
  }
]

For every record below, what is its cell viability?
1. CNC1CC(c2ccc(Cl)c(Cl)c2)c2ccccc21 (centres undefined) [Indatraline]
2. C[C@]12CC[C@H]3[C@@H](CCC4=CC(=O)CC[C@@]43C)[C@@H]1CC[C@@H]2O [Testosterone]
3. CN1CC[C@]2(c3cccc(O)c3)Cc3nc4ccccc4cc3C[C@H]2C1
4. CCCCC/C=C\C/C=C\C/C=C\C/C=C\CCCC(=O)Nc1ccc(O)cc1

Output:
99.9%
107%
103%
100%

For every record below, what is its cell viability?
1. C[C@]12CC[C@H]3[C@@H](CCC4=CC(=O)CC[C@@H]43)[C@@H]1CC[C@@H]2O [Nandrolone]
2. CC[C@]1(O)CC[C@H]2[C@@H]3CCC4=CCCC[C@@H]4[C@H]3CC[C@@]21C [Ethylestrenol]

Output:
1: 102%; 2: 102%

----------
Task for the reader: assign each of the following compounds its reported cell viability.
Test system: U87;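 further: viable cell number estimated from Alamar Blue fluorescence read at 560/90, part of a single-dose primary screen of an FDA-approved drug library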
Experiment: cell viability relative to vehicle control; higher = less growth inhibition (less active)
Details: 10 µM; 72 h
Answers are plain numbers, in %.

Sample answers from the record:
[
  {
    "structureSmiles": "COc1cc2c(cc1OC)[C@@]13CCN4CC5=CCO[C@H]6CC(=O)N2[C@H]1[C@H]6[C@H]5C[C@H]43",
    "testedSystem": "U87",
    "quantityUnit": "%",
    "cell viability": 107
  },
  {
    "structureSmiles": "CCN(C(C)=O)c1cccc(-c2ccnc3c(C#N)cnn23)c1",
    "testedSystem": "U87",
    "quantityUnit": "%",
    "cell viability": 112
  }
]

Alright, here's another compound for you.
Input: Field request: cell viability | item: C[C@]12CC[C@H](O)CC1=CC[C@@H]1[C@@H]2CC[C@]2(C)C(=O)CC[C@@H]12
Output: 116
